Reference source: ChEMBL document CHEMBL1201862

molecular target: Ataxin-2 (Homo sapiens) (UniProt Q99700); assay: qHTS for Inhibitors of ATXN expression.; type: functional
Sequence (Q99700 whole entry): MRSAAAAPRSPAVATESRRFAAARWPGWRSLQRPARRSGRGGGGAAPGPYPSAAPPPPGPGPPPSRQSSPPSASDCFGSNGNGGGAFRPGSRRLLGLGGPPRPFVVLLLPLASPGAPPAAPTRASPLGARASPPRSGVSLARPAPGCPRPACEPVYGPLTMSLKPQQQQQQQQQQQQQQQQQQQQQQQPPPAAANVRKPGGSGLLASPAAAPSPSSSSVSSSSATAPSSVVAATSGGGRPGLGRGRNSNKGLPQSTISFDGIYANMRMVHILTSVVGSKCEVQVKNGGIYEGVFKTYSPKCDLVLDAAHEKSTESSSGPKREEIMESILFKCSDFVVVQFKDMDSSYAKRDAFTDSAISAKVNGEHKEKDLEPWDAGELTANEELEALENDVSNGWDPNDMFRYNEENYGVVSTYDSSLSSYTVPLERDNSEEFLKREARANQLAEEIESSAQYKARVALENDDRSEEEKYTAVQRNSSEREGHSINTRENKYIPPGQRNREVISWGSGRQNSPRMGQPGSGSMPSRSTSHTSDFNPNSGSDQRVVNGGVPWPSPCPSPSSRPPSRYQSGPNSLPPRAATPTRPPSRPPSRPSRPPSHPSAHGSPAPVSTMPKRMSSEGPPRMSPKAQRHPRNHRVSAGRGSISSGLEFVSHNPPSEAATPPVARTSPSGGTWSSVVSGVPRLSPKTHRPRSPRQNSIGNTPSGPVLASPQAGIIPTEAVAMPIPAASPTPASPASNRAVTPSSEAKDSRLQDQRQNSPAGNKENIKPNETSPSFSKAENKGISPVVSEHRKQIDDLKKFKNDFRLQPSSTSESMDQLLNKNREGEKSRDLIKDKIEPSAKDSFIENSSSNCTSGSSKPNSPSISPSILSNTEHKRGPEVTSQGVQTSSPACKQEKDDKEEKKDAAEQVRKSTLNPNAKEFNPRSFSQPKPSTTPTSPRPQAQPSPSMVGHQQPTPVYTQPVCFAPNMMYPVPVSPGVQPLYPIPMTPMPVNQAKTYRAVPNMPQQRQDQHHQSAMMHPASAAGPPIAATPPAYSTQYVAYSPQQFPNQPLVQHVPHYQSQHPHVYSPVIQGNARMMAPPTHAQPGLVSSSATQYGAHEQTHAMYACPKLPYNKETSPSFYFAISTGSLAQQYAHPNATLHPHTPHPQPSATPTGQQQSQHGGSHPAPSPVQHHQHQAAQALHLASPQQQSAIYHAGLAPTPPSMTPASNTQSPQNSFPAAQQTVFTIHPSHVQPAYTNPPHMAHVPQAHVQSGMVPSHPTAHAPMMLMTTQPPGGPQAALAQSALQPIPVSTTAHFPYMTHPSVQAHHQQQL
Among all 400,000 compounds or so, about 2,100 (0.53%) were called active. Another 14% or so got no clear call; they are omitted. How the calls were made is not given here. The full list was thinned out, with actives kept by preference.
The reply should name one outcome from active, inactive

Here are 8 molecules together with their reported answers.
record_smiles	label_value
CCC[C@H](CN[C@@H](CNC)[C@H](C)CC)NCCc1cc(C(F)(F)F)cc(C(F)(F)F)c1	active
Cc1c(Br)c(=O)oc2c(Br)c(O)ccc12	inactive
Cc1cccn2c(=O)c3cc(C#N)c(=O)n(CCCN4CCOCC4)c3nc12	inactive
O=S(=O)([N-]c1nc2ccccc2nc1-[n+]1ccn(Cc2ccccc2)c1)c1ccc(Br)cc1	inactive
Oc1nc(C(Cl)Cl)nc2sc3c(c12)CCN(Cc1ccccc1)C3	inactive
CSc1nc2sc3c(c2c(=O)n1CC(C)C)CC(C)(C)OC3	inactive
CCOc1ccc2nc(NCCNC(=O)CC)c(C#N)cc2c1	inactive
COc1ccc(CCNC(=O)c2coc(=O)c(Br)c2)cc1	active

Which outcome was entered for the molecule CC(=O)O[C@@H]1C[C@H]2C(C)(C)C(=O)C=C[C@]2(C)[C@H]2CC[C@@]3(C)[C@H](c4ccoc4)OC(=O)[C@H]4O[C@]43[C@@]21C in this test?
active

I would be grateful if you could indicate the recorded call for CCN1CCN(c2nc3c(C)cccn3c(=O)c2/C=C(\C#N)C(=O)NC)CC1 .
inactive

---

target: Ataxin-2 (Homo sapiens) (UniProt Q99700); assay: qHTS for Inhibitors of ATXN expression.; type: functional
Among all 400,000 compounds or so, about 2,100 (0.53%) were called active. Not shown: some 14% with an inconclusive outcome. No rule for the calls is given here. This is one part of a sample in which actives are shown more often than they occur.
Returns: one label drawn from active, inactive

Examples with answers:
compound	label_value
Cc1ccc(CN2C(=O)CCC2C(=O)N2CCN(c3ccccc3)CC2)cc1 (centres undefined)	inactive
COCCN=C(NS(=O)(=O)c1cccs1)c1ccccc1Cl	inactive
CCCC(=O)Nc1nn(CCC)c2nc3ccccc3cc12	inactive
Cc1ccc(C(=O)Nc2cccc(-c3nc(CNC(=O)c4ccc5ccccc5n4)c(C)o3)c2)s1	inactive
CC(C)(C)[S+]([O-])N1Cc2cc(C(=O)NCc3ccc4c(c3)OCO4)nc(-c3cccc(-c4cc5ccccc5o4)c3)c2[C@@H]1CCO (some centres undefined)	active
CCOC(=O)c1ccc(NC(=O)CC2C(=O)N(c3ccccc3)C(=O)N2Cc2ccc(C)cc2)cc1 (centres undefined)	active
COc1cc2c3nnc(-c4ccccc4)c-3cn(Cc3ccccc3F)c2cc1OC	inactive
CCCCCc1c(-c2ccc(Cl)cc2)ncn1CCc1ccccc1OC	active

Dear colleague, could you share the recorded outcome for CCCCCCCCN1C(=O)[C@H](CC(=O)N2CCN(C(=O)c3ccco3)CC2)C[C@@]2(C(=O)OCC)CCCC=C12 when you have a moment?
active

---

biological target: Ataxin-2 (Homo sapiens); experiment: qHTS for Inhibitors of ATXN expression.; assay type: functional
Screen size: about 400,000 compounds; about 2,100 (0.53%) were called active. About 14% were inconclusive and are not listed. No rule for the calls is given here. What follows is part of a selection rich in actives, with near analogues and random picks from the rest.
// allowed return values: active, inactive

Please review the entries below; each comes with its answer.
compound	label_value
COCCN=C(S)NCCCNc1nc2cc3c(cc2cc1C#N)OCO3	inactive
COc1c(CC=C(C)C)c(O)cc2oc(=O)c3c4ccc(O)cc4oc3c12	inactive
CCOc1ccc(C2C=C(c3cccc(OC)c3)Nc3nnnn32)cc1 (stereo not given)	inactive
CC(C)=CCc1c(O)c(CC=C(C)C)c2occ(-c3ccc(O)cc3)c(=O)c2c1O	active
C[C@H]1CN([C@@H](C)CO)C(=O)Cc2cc(NC(=O)C3CC3)ccc2O[C@H]1CN(C)Cc1ccc(Oc2ccccc2)cc1	active

--- query ---
So what was the verdict on CC1(C)C=Cc2c(c3c(c4c(=O)c(-c5ccc(O)cc5)coc24)OC(C)(C)CC3)O1 in this test?
active
